Can you tell me apparent KD of MS2 coat protein for the items I'm about to list?
System: MS2 coat protein
Experiment: apparent KD of MS2 coat protein; higher = weaker reporter binding
Details: Eterna round: R107; input ligand: arginine 13.2 mM
Answers are plain numbers, in nM.

Sample records with apparent KD of MS2 coat protein:
GAAAAUCCCGUACAUGAGGAUCACCCAUGUCGAGGACCGGUACGGCCGCCACUCGCACGCAUUGCAUUGGAGGGUCAGGUACGAG [Erenerrati] = 26.9
CGGUAACCACAUGAGGAUCACCCAUGUGAAGGAGCGGCGAAUAAGCCAGGUAGGUCGCGCAUGAAUAAAUCAUGUUGGUGCCGAA [XArg-A 16 NuPack] = 31.9
AAUAAUAAGGCGGCCGCCACUAAACAUGAGGAUCACCCAUGUCUCGAGCGCUUGCAUUUGGGAAGUAGGACCGGGCCAAUAAUAA [Exclusion - Tryptophan B (Freestyle 4)] = 14.5
AUACAUGAGGAUCACCCAUGUGAUGGCCGGCGAGGACCGGUACGGCCGCCACUCGUGAUCCGUCCUGAGAGCAAAGCCCUCAGCA [Onedti] = 17.3
UGGGUACAUGAGGAUCACCCAUGUACUGAAGGAGCGGGACGAAUCUCAGGUAGGUCGCAGACAUGAGGAUCACCCAUGUAGUGGA [Exclusion Arginine A GF 15] = 13.9

Below are 6 sequences. Give each one its apparent KD of MS2 coat protein.
1. CGACUACAGCGUGAUACCAGUGACAGAUACCAGUCUAGACAUGAGGAUCACCCAUGUACGCGCCCUUGGCAGCACACUAGAUCGA [#29 Same State - Theophylline B]
2. AAUUCCUCACAUGAGGAUCACCCAUGUGAAGGAGCGCGGAAUAACGCAGGUAGGUCGCACAUGGAAACCGCUGCGAAAGCAGCAA [MAT - Exclusion Arginine A - Mod of Eli - D26]
3. AAUAAUAACAUGGGUGCACGAGUGGCAUAACGAGGACCGGUACGGCCGCCACUCGAACAUGAGGAUCACCCAUGUAGCCACUCGA [M'-T'-T-MS2-T'' - Design 4]
4. AUAACAUGAGGAUCACCCAUGUAAGCUGAAGGAGCGGACGAAAGUCCAGGUAGGUCGCAGCGCUCCUUCACCUCAUGAGAAGGAG [(M1)-(M2)-(Arg1)-(Arg2)-(A)'-(M)'-(A)''_Design2]
5. GAUUCGCAGUCGGCCGCCACUAACAUGAGCUGCUAGUUAUUAUCACAUGAGGAUCACCCAUGUCUUAGGACCGGGACAACCUGUU [theeternabot_sameState_MS2_Trp_B_26]
6. GAUGAACUAUUUGAUACCAGACUACAUGAGGAUCACCCAUGUGAGUUUCGUCCUCUGCCAGUCCCUUGGCAGCAAAUAGUUUAUC [XTheo B #8]

Output:
1: 36.7; 2: 13.1; 3: 55.1; 4: 23.4; 5: 48.3; 6: 15.8

Below are 2 sequences. Give each one its apparent KD of MS2 coat protein.
1. UUACAUGAGGAUCACCCAUGUCAUAAUGAUACCAGAUAGUUAAUGAUCCCUUGGCAGCAUAAUACCUAGACAUUUAAGUCAUAGG [Aa]
2. UUACAUGAGGAUCACCCAUGUCAUACAGAAGGAGCGUCACAUAAGACAGGUAGGUCGCUGUUAUUUAAUACUAUUAUAUCCUCUA [JR_Nu_ExcArginiA_Sub027]

Output:
1: 59.5; 2: 26.9
